Below: a set of entries, each annotated with reported TGI.
Tested on: LOX IMVI melanoma
TEST: NCI tumour cell line growth inhibition, 48 h

{"MOLECULE": "CC(C)C(=O)C(C)(C)CCc1ccccn1", "TGI": "> 100 µM"}
{"MOLECULE": "Cc1cc2c(cc1C)N(C(=O)CCl)CCN2C(=O)CCl", "TGI": "0.365 µM"}
{"MOLECULE": "OCCOCn1nncc1Cn1ncc2c(SCc3ccccc3)ncnc21", "TGI": "> 100 µM"}
{"MOLECULE": "CCN(CC)C(=S)SC", "TGI": "> 100 µM"}
{"MOLECULE": "Cc1cc(S(=O)(=O)NC#N)c(S/C(=N\\Nc2ccc([N+](=O)[O-])cc2)c2ccc(Cl)cc2)cc1Cl", "TGI": "> 100 µM"}
{"MOLECULE": "COc1ccc(OC2OC(CO)C(OCc3ccccc3)C(OCc3ccccc3)C2OCc2ccccc2)cc1 (stereo unspecified)", "TGI": "> 100 µM"}
{"MOLECULE": "CC[PH+](CC)CC.O=COC1OC([S-])C(OC=O)C(OC=O)C1OC=O.[Au+] (stereo unspecified)", "TGI": "2.41 µM"}
{"MOLECULE": "Cc1cc2c(cc1Cl)SC1=NN(C)C(N(C)C)N1S2(=O)=O (stereo unspecified)", "TGI": "> 100 µM"}
{"MOLECULE": "C/C(=N\\N(c1ccccc1)c1ccccc1)c1c(O)cc(C)oc1=O", "TGI": "> 100 µM"}
{"MOLECULE": "CC1(C)OCC2OC3([C@@H]4OC(C)(C)O[C@H]4CO)OC(C)(C)OC3C2O1 (stereo partly specified)", "TGI": "> 100 µM"}
{"MOLECULE": "Cn1c2c(c3ccc(Cl)c(Cl)c31)C(C#N)C1(CCNCC1)NC2=O (stereo unspecified)", "TGI": "3.39 µM"}

====

Tested on: HOP-92 NSCLC
TEST: NCI tumour cell line growth inhibition, 48 h

{"MOLECULE": "CCOC(=O)c1cc(/C=C/C(C)=C/C(=O)OC)oc1C", "TGI": "> 100 µM"}
{"MOLECULE": "Cc1cc(C)nc(NS(=O)(=O)c2ccc(Nc3c4ccccc4nc4c(C(=O)N5CCN(CCOS(C)(=O)=O)CC5)cccc34)cc2)n1", "TGI": "> 100 µM"}
{"MOLECULE": "O=C1NC2CCCCC2N=C1CC(=O)c1ccc(Br)cc1 (stereo not given)", "TGI": "65.8 µM"}
{"MOLECULE": "COC(=O)[C@@H]1CCCCC[C@H]2C(CO)=C(C)C(=O)C12 (stereo not given in full)", "TGI": "> 100 µM"}
{"MOLECULE": "COc1cc2cc(C(=O)N3C[C@H](CCl)c4c3cc(N)c3ccccc43)[nH]c2c(OC)c1OC", "TGI": "> 50 µM"}
{"MOLECULE": "CC(=O)NC(CCCCNC(=O)NCCCl)C(=O)NCc1ccccc1 (stereo not given)", "TGI": "> 100 µM"}
{"MOLECULE": "c1cncc(CC2(c3cc4ccccc4[nH]3)OCCO2)c1", "TGI": "> 100 µM"}
{"MOLECULE": "N.N.N.N.O=C([O-])C(Cl)Cl.O=C([O-])C(Cl)Cl.[Co+3].[O-][Cl+3]([O-])([O-])[O-]", "TGI": "> 100 µM"}
{"MOLECULE": "CCOC(=O)/C=C/C1=C(c2cccs2)c2ccccc2CC1", "TGI": "> 100 µM"}
{"MOLECULE": "NCCCCNCCCNC(=O)c1nc(-c2nc(CCN)sc2Cl)sc1Cl", "TGI": "> 100 µM"}
